Taken from patent US20210253725A1.

A collection of binders and their measured Functional assay Cross-linked by F(ab′)2 fragment IL-8
Target: T1, CD27 expressed on the cell surface of HT1080_CD27 cells (human, UniProt P26842 20-260); further: test concentration or dose not given here
T1 sequence (looked up): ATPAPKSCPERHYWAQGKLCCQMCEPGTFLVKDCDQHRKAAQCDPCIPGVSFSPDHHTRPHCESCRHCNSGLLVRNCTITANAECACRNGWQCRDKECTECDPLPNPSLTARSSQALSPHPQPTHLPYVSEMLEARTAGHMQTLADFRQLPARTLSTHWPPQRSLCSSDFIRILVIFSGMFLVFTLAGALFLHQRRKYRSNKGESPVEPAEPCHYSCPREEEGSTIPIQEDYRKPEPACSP
Assay: cell-based or functional assay
# answer = value followed by unit

For orientation, consider the following solved cases.
Binder: P018.S.01.A.A06 (antibody, V domains shown, V regions on human Ig constant parts; also called AB27_3) VH: QSVEESGGRLVTPGTPLTLTCTVSGIDLSTYAMSWVRQAPGKGLEWIGIIYGSGYTYYASWAKGRATISKTSSTTVDLKITSPTTEDTATYFCASGYGISSGNFLHFNLWGQGTLVTVSS VL: AYDMTQTPASVEVAVGGTVTIKCQASESIYFNLAWYQQKPGQRPKLLIYRASTLASGVSSRFKGSGSGTQFTLTISGVESADAATYYCQQGYDSSHIDNAFGGGTEVVVT
Measured value: 1.92 abs. corr.

Binder: P018.S.10.A.B03 (antibody, V domains shown, V regions on human Ig constant parts; also called AB27_168) VH: QSLEESGGRLVTPGTPLTLTCTASGFSLSSYDMGWVRQAPGKGLEWIGIISSSGSTYYASWAKGRFTISKTSSTTVDLKMTSLTTEDTATYFCARTSLDGNLWGQGTLVTVSS VL: AFEMTQTPSSVSEPVGGTVTIKCQASQSIYNYLSWYQQKPGQPPKLLIYDASALASGVPSRFKGSGSGTDFTLTISDLESADAATYYCQQDYSVSDVDNSFGGGTEVVVK
Measured value: 2.07 abs. corr.

Ask: What value of Functional assay Cross-linked by F(ab′)2 fragment IL-8 has been reported for the following binder? P018.S.06.A.B01 (antibody, V domains shown, V regions on human Ig constant parts; also called AB27_98) VH: QSLEESGGGLVKPEGSLTLTCTASGFSFSSSYWICWVRQAPGKGLEWIGCIYAGTFSDTFYASWTKGRFTISKTSSTTVTLQMTSLTGADTATYFCARGHYYYTDNYTANGYGRGLTRLDLWGQGTLVTVSS VL: AAVLTQTPSPVSAAVGGTVTISCQASQSVYNNNNLAWYQQKAGQPPKLLIYGASNLESGVPSRFKGSGSGTQFTLTISDLESDDAASYYCAGGYTTSGDNGFGGGTEVVVK
Result: 1.18 abs. corr.
